Below, each entry is listed with its recorded IC50.
Molecular target: human ACC1 (acetyl-coenzyme A carboxylase alpha transcript variant 1) (Homo sapiens)
Construct: FLAG (C); made in house; host or cells: baculovirus-infected insect cells (Hi5)
Test: Human ACC1 enzyme assay, Assay B1 (ADP-Glo)
Format: biochemical
Don't forget the unit after the value.

Field: example entries. Status: answers known.
INSERT INTO assay_data (compound, attribute_measured, result) VALUES
  ('Cc1ccc(-c2ccc(Cl)cc2)cc1C1=C(O)[C@]2(CC[C@H](CO)CC2)NC1=O [1-117]', 'IC50', '0.194 µM'),
  ('CO[C@H]1CC[C@]2(CC1)NC(=O)C(c1cc(-c3ccc(Cl)cc3F)ccc1C)=C2O [1-142]', 'IC50', '0.704 µM'),
  ('COC1CCC2(CC1)NC(=O)C(c1cc(-c3ccc(Cl)cc3)c(C)cc1C)=C2O (stereo not drawn) [1-7]', 'IC50', '1.46 µM'),
  ('Cc1ccc(-c2ccc(Cl)cc2)cc1C1=C(O)C(C)(C)C(C)(C)OC1=O [10-2]', 'IC50', '0.76 µM');

Identify measured IC50 associated with Cc1ccc(-c2ccc(Cl)cc2)c(C)c1C1=C(O)C2(CCCC2)OC1=O [2-2]
2.36 µM

Identify measured IC50 associated with Cc1ccc(-c2ccc(F)cc2)c(C)c1C1C(=O)N2CCCCN2C1=O [8-1]
3.56 µM

Identify measured IC50 associated with COC1CCC2(CC1)NC(=O)C(c1cc(-c3ccc(Cl)cc3)ccc1Cl)=C2O (stereo not drawn) [1-11]
0.157 µM

Identify measured IC50 associated with COCC1CCC2(CC1)NC(=O)C(c1cc(-c3ccc(Cl)cc3)ccc1Cl)=C2O (stereo not drawn) [1-54]
0.157 µM

Identify measured IC50 associated with CC1COC2(CCC3(CC2)NC(=O)C(c2cc(-c4ccc(Cl)cc4)ccc2Cl)=C3O)O1 (stereo not drawn) [1-68]
0.547 µM

====

Target: human ACC2 (acetyl-coenzyme A carboxylase 2) (Homo sapiens, UniProt O00763)
Sequence (O00763 27-2458 limits assumed): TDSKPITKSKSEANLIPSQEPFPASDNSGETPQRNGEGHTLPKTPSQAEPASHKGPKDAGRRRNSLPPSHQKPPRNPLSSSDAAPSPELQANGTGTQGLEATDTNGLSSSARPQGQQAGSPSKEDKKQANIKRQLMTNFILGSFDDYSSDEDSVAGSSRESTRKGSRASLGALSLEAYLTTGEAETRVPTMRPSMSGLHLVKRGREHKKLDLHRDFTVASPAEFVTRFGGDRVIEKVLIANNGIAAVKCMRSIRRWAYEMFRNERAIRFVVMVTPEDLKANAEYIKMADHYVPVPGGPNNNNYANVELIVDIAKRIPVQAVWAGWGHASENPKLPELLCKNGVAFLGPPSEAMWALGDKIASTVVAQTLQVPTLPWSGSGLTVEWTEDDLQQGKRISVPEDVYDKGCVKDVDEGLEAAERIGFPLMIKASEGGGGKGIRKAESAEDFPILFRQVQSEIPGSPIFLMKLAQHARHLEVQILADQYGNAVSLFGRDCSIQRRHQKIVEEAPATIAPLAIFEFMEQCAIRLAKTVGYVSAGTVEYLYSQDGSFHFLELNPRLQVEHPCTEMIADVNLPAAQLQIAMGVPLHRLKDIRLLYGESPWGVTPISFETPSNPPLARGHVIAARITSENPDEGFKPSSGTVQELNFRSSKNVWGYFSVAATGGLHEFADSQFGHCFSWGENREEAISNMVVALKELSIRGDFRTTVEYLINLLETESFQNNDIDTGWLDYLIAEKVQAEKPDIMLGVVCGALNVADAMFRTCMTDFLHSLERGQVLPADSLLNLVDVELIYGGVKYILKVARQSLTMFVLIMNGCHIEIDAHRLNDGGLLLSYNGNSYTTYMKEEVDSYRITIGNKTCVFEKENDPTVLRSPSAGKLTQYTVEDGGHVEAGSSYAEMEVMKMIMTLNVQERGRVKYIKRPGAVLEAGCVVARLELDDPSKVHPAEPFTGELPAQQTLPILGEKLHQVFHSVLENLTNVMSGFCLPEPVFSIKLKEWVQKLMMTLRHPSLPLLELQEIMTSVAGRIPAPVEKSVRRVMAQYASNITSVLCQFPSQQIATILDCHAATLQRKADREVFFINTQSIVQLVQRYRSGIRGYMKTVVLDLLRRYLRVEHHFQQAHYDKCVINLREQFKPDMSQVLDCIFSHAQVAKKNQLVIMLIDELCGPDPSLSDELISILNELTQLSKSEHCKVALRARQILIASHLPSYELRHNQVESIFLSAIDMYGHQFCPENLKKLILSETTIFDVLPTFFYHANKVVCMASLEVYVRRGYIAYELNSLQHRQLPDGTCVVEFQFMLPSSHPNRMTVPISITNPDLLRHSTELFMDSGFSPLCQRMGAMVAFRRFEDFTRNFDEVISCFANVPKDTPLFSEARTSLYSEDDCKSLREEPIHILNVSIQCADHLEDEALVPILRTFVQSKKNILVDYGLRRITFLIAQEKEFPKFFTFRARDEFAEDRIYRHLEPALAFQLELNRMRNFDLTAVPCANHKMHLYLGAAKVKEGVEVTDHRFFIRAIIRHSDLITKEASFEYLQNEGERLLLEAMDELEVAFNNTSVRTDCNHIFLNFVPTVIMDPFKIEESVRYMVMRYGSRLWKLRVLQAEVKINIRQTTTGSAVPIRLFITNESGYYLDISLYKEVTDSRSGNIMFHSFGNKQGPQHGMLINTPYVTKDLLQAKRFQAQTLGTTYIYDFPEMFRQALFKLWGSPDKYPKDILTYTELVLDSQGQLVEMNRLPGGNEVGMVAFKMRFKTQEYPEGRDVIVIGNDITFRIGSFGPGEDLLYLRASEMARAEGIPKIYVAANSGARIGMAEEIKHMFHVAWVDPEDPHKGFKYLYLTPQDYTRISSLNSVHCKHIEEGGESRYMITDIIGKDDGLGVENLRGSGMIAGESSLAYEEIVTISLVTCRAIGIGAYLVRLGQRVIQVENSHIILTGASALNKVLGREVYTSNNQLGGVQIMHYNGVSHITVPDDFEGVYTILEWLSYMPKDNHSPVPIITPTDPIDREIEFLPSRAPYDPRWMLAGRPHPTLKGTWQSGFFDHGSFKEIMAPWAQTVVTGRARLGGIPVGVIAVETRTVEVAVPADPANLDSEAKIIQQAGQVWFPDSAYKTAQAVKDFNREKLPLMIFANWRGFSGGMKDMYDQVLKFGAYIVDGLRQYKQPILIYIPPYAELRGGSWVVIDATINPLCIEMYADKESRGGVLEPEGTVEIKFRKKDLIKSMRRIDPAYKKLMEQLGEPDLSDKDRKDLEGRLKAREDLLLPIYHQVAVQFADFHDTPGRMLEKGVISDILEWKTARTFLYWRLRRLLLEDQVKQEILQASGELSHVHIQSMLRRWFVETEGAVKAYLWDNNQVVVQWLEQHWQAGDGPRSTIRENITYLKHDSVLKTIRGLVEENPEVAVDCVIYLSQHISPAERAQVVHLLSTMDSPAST
Test: Human ACC2 enzyme assay, Assay B2 (ADP-Glo)
Below, each entry is listed with its recorded IC50.
Form entry: value (µM) — number only.

INSERT INTO assay_data (compound, system_under_test, unit_info, quantitative_result) VALUES
  ('COC1CCC2(CC1)NC(=O)C(c1cc(-c3ccc(Cl)c(Cl)c3)ccc1C)=C2O (centres unmarked)', 'human ACC2 (acetyl-coenzyme A carboxylase 2) (Homo sapiens, UniProt O00763)', 'µM', 2.61);

Identify measured IC50 associated with Cc1cc(C)c(-c2ccc(Cl)cc2)c(C)c1C1=C(O)C2(CCCCC2)CC1=O
2.12

Identify measured IC50 associated with COC1CCCC2(C1)OC(=O)C(c1cc(-c3ccc(Cl)cc3)c(C)cc1C)=C2O (centres unmarked)
12.4

Identify measured IC50 associated with Cc1ccc(-c2ccc(Cl)cc2)cc1C1=C(O)C2(CCOCC2)NC1=O
9.34

Identify measured IC50 associated with COC1CCC2(C1)NC(=O)C(c1c(C)ccc(-c3ccc(Cl)cc3)c1C)=C2O (centres unmarked)
10.4

====

Target: human ACC2 (acetyl-coenzyme A carboxylase 2) (Homo sapiens, UniProt O00763)
Test: Human ACC2 enzyme assay, Assay B2 (ADP-Glo);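 note: human ACC2 activity read as ADP product, detected by luciferase glow luminescence after residual ATP removal, enzyme near 2 ng/µl in linear range, detection steps at 22 °C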
attribute measured: pIC50
The value called pIC50 is obtained by taking minus log10 of the concentration in mol/L.

Field: example entries. Status: answers known.
INSERT INTO results (compound, quantitative_result) VALUES
  ('Cc1ccc(-c2ccc(Cl)cc2)cc1C1=C(O)C2(CCCCC2)OC1=O [2-10]', 5.33),
  ('Cc1ccc(-c2ccc(Cl)cc2)c(C)c1C1=C(O)C2(CCC3(CCCO3)CC2)NC1=O (centres unmarked) [1-34]', 4.94),
  ('CO[C@H]1CC[C@]2(CC1)NC(=O)C(c1cc(-c3ccc(Cl)c(F)c3)ccc1C)=C2O [1-118]', 5.86);

System human ACC2 (acetyl-coenzyme A carboxylase 2) (Homo sapiens, UniProt O00763). Read-out pIC50. Item Cc1c(F)cc(-c2ccc(Cl)c(F)c2)cc1C1=C(O)[C@]2(CC[C@H](C(F)(F)F)CC2)NC1=O [1-102] . Report value.
5.42

====

Molecular target: human ACC2 (acetyl-coenzyme A carboxylase 2) (Homo sapiens)
Experiment: Human ACC2 enzyme assay, Assay B2 (ADP-Glo)
attribute measured: IC50 (µM)
Form entry: value (µM) — number only.

Identify measured IC50 associated with Cc1ccc(-c2ccc(Cl)cc2)cc1C1=C(O)C2(CCC3(CC2)OCCCO3)NC1=O
11.6

Identify measured IC50 associated with Cc1ccc(-c2ccc(Cl)cc2)cc1C1=C(O)C2(CCC3(CC2)OCCO3)NC1=O
5.99

Identify measured IC50 associated with Cc1ccc(-c2ccc(Cl)cc2)cc1C1=C(O)[C@]2(CC[C@H](C)CC2)NC1=O
0.432

Identify measured IC50 associated with Cc1cc(F)c(-c2ccc(Cl)c(F)c2)cc1C1=C(O)C2(CCC(C(F)(F)F)CC2)NC1=O (mixture of isomers)
2.03

Identify measured IC50 associated with Cc1cc(F)c(-c2ccc(Cl)cc2)cc1C1=C(O)[C@]2(CC[C@](O)(C(F)(F)C(F)(F)F)CC2)NC1=O
5.62

Identify measured IC50 associated with COCC1CCC2(CC1)OC(=O)C(c1c(C)ccc(-c3ccc(Cl)cc3)c1C)=C2O (centres unmarked)
1.18

Identify measured IC50 associated with Cc1cc(C)c(-c2ccc(Cl)cc2)c(C)c1C1=C(O)C(C)(C)OC1=O
7.34

====

Molecular target: human ACC1 (acetyl-coenzyme A carboxylase alpha transcript variant 1) (Homo sapiens)
Construct: FLAG (C); made in house; host or cells: baculovirus-infected insect cells (Hi5)
Assay: Human ACC1 enzyme assay, Assay B1 (ADP-Glo)
Format: biochemical
Conditions: Assay B1; read-out: ACC 1 (=B1) IC50
attribute measured: IC50

Field: example entries. Status: answers known.
INSERT INTO measurements (molecule, attribute_measured, result) VALUES
  ('Cc1ccc(-c2ccc(Cl)cc2)cc1C1=C(O)CC2(CCCCC2)CC1=O', 'IC50', '501 nM'),
  ('Cc1ccc(-c2ccc(Cl)cc2)cc1C1=C(O)C2(CCCCC2)CNC1=O', 'IC50', '2340 nM'),
  ('Cc1cc(C)c(-c2c(O)c3ccc(Cl)cc3[nH]c2=O)cc1-c1ccc(Cl)cc1', 'IC50', '376 nM'),
  ('Cc1ccc(-c2ccc(Cl)cc2)cc1C1=C(O)[C@]2(CC[C@H](C(F)(F)F)CC2)NC1=O', 'IC50', '110 nM'),
  ('Cc1ccc(-c2ccc(C(F)(F)F)cc2)cc1C1=C(O)C2(CCCCC2)NC1=O', 'IC50', '871 nM');

Identify measured IC50 associated with Cc1ccc(-c2ccc(Cl)cc2)c(C)c1C1=C(O)C2(CCC3(CCCO3)CC2)NC1=O (centres unmarked)
297 nM

Identify measured IC50 associated with Cc1ccc(-c2ccc(Cl)cc2)cc1C1=C(O)[C@@]2(CCC[C@H](C(F)(F)F)C2)NC1=O
142 nM

Identify measured IC50 associated with COC[C@H]1CC[C@]2(CC1)NC(=O)C(c1cc(-c3ccc(Cl)c(F)c3)ccc1C)=C2O
126 nM

====

Tested on: MDA-MB-468
Experiment: Cell proliferation assay (CellTiter-Glo, 96 h), MDA-MB-468
Assay type: cell-based
Settings: Homo sapiens; MDA-MB-468 cells
attribute measured: IC50 (nM)
Form entry: value (nM) — number only.

Identify measured IC50 associated with Cc1cc(C)c(-c2ccc(Cl)cc2)cc1C1=C(O)[C@]2(CC[C@@]3(CCCO3)CC2)OC1=O
153

====

Below, each entry is listed with its recorded pIC50.
Target: recombinant human ACC1 (Homo sapiens, UniProt Q13085)
Assay: Human ACC1 enzyme assay, Assay A1 (HTRF ADP immunoassay);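 note: ADP generated by the enzyme quantified via competitive time-resolved FRET, read as europium cryptate to d2 energy transfer after 1 h at 22 °C with labelled ADP tracer and anti-ADP antibody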
The value called pIC50 is obtained by taking minus log10 of the concentration in mol/L.

Identify measured pIC50 associated with CC(C)[C@H]1CC[C@]2(CC1)NC(=O)C(c1cc(-c3ccc(Cl)cc3)ccc1Cl)=C2O [1-141]
6.61

====

Target: human ACC2 (acetyl-coenzyme A carboxylase 2) (Homo sapiens)
Experiment: Human ACC2 enzyme assay, Assay B2 (ADP-Glo)
attribute measured: IC50
Don't forget the unit after the value.

INSERT INTO results (compound, result) VALUES
  ('COC1CCC2(CC1)NC(=O)C(c1cc(-c3ccc(Cl)cc3)ccc1Cl)=C2O (stereo not shown)', '4.47 µM'),
  ('Cc1ccc(-c2ccc(Cl)c(F)c2)c(C)c1C1=C(O)[C@]2(CC[C@](O)(C(F)(F)F)CC2)NC1=O', '12.4 µM'),
  ('Cc1ccc(-c2ccc(Cl)cc2)c(C)c1C1=C(O)C2(CCC(C)CC2)NC1=O (stereo not shown)', '0.558 µM');

System human ACC2 (acetyl-coenzyme A carboxylase 2) (Homo sapiens). Read-out IC50. Item CC1COC2(CCC3(CC2)NC(=O)C(c2cc(-c4ccc(Cl)cc4)ccc2Cl)=C3O)O1 (stereo not shown) . Report value.
5.9 µM
